Molecular target: T1, hRAGE-Fc (human, UniProt Q15109 23-342, biotin label in the selections and HTRF assays)
T1 construct: extracellular domain; also called biotin labeled hRAGE-Fc; Biotin-labeled RAGE-Fc; not shown: Fc part
T1 sequence (Q15109 23-342): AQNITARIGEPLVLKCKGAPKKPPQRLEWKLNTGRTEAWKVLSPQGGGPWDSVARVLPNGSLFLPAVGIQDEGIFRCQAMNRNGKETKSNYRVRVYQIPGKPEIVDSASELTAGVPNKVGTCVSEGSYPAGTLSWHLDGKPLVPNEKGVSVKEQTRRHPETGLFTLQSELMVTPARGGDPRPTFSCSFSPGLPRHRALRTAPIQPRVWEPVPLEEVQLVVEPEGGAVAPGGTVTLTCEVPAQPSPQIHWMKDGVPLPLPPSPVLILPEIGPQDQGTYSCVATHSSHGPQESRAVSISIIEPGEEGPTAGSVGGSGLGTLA
Experiment: HTRF competition, scFv vs labelled parental XT-M4 (competitor) on hRAGE
reported.metric: IC50 (nM)
State just the number; it will be interpreted in nM.

# binder, quantity.unit, IC50
measured = [
    ("parental XT-M4 scFv (VH 2.0, VL 2.11), VL-VH format (scFv, also called M4WT) scFv: DIQMTQSPSSLSASVGDRVTITCRASQDVGIYVNWFQQKPGKAPRRLIYRATNLADGVPSRFSGSRSGTDFTLTISSLQPEDFATYYCLEFDEHPLTFGGGTKVEIKDGGGSGGGGSGGGGSSEVQLVESGGGLVQPGGSLRLSCAASGFTFNNYWMTWVRQAPGKGLEWVASIDNSGDNTYYPDSVKDRFTISRDNAKNSLYLQMNSLRAEDTAVYYCARGGDITTGFDYWGQGTLVTVSS", "nM", 33),
    ("S2R3A1_8G9 scFv (scFv) scFv: DIQMTQSPSSLSASVGDRVTITCRASQDVGIYVNWFQQKPGKAPRRLIYRATNLADGVPSRFSGSRSGTDFTLTISSLQPEDFATYYCLEFDEHPLTFGGGTKVEIKDGGGSGGGGSGGGGSSEVQLVESGGGLVQPGSSLRLSCAASGFTFNNYWMTWVRQAPGKGLEWVASIDNSGDNTYYPDSVKDRFTISRDNAKNSLYLQMNSLRAEDTAVYYCARGGDITTGLDYWGQGTLVTVSS", "nM", 2.4),
]

Complete the entry with IC50 for S1R5A1_10G10 scFv (scFv) scFv: DIQMTQSPSSLSASVGDRVTITCRASQDVGIYVNWFQQKPGKAPRRLIYRATNLADGVPSRFSGSRSGTDFTLTISSLQPEDFATYYCLEFDEHPLTFGGGTRVEIKDGGGSGGGGSGGGGSSEVQLVESGGGLVQPGGSLRLSCAASGFTFNNYWMSWVRQAPGKGLEWVASIDNSGENTYYPDSVKDRFTISRDNAKNSLYLQMNSLRAEDTAVYYCARGGDITTGFDYWGQGTLVTVSS 16.3
